The values you see were collected from patent US20080227798A1.

- ASSAY TEXT: Approximate solubility of Compound I in different solvents
- Assay type: physicochemical
- CONDITION INFO: organic solvent or mixture, thermodynamic from solid; Dichloromethane (DCM), ambient temperature, approximate

# COMPOUND, solubility
rows = [
    ("Cn1c(=O)cc(N2CCC[C@@H](N)C2)n(Cc2cc(F)ccc2C#N)c1=O [Compound I, succinate]", "< 1000 µg/mL"),
]

====

- ASSAY TEXT: Approximate solubility of Compound I in different solvents
- Type: physicochemical
- CONDITION INFO: thermodynamic from solid; Water (H2O), ambient temperature, approximate

# COMPOUND, solubility (mg/mL)
records = [
    ("Cn1c(=O)cc(N2CCC[C@@H](N)C2)n(Cc2cc(F)ccc2C#N)c1=O [Compound I, succinate]", 51),
]

====

- ASSAY TEXT: Approximate solubility of Compound I in different solvents
- Format: physicochemical
- CONDITION INFO: organic solvent or mixture, thermodynamic from solid; Acetone, ambient temperature, approximate

# COMPOUND, solubility / µg/mL
data = [
    ("Cn1c(=O)cc(N2CCC[C@@H](N)C2)n(Cc2cc(F)ccc2C#N)c1=O [Compound I, succinate]", 2000),
]

====

- ASSAY TEXT: Approximate solubility of Compound I in different solvents
- Format: physicochemical
- CONDITION INFO: organic solvent or mixture, thermodynamic from solid; Acetonitrile (ACN), ambient temperature, approximate
READOUT: solubility

# MOLECULE, READOUT, REPORTED MEASUREMENT
data = [
    ("Cn1c(=O)cc(N2CCC[C@@H](N)C2)n(Cc2cc(F)ccc2C#N)c1=O [Compound I, succinate]", "solubility", "< 1000 µg/mL"),
]

====

- ASSAY TEXT: Approximate solubility of Compound I in different solvents
- Type: physicochemical
- CONDITION INFO: organic solvent or mixture, thermodynamic from solid; 1,4-Dioxane, ambient temperature, approximate
READOUT: solubility

# MOLECULE, REPORTED MEASUREMENT
data = [
    ("Cn1c(=O)cc(N2CCC[C@@H](N)C2)n(Cc2cc(F)ccc2C#N)c1=O [Compound I, succinate]", "< 1000 µg/mL"),
]

====

- ASSAY TEXT: Approximate solubility of Compound I in different solvents
- Format: physicochemical
- CONDITION INFO: organic solvent or mixture, thermodynamic from solid; Methanol (MeOH), ambient temperature, approximate
READOUT: solubility (mg/mL)

# COMPOUND, REPORTED MEASUREMENT
records = [
    ("Cn1c(=O)cc(N2CCC[C@@H](N)C2)n(Cc2cc(F)ccc2C#N)c1=O [Compound I, succinate]", 20),
]

====

- ASSAY TEXT: Approximate solubility of Compound I in different solvents
- Format: physicochemical
- CONDITION INFO: organic solvent or mixture, thermodynamic from solid; Dimethyl Formamide (DMF), ambient temperature, approximate
- Method: Compound I prepared by the method described in Example 1 was used for the solubility study. Solvents and other reagents were of ACS or HPLC grade and were used as received. A weighed sample (typically about 20-25 mg) of Compound I was treated at ambient temperature with aliquots (typically ≧50 μL) of the test solvent with sonication between additions. […] Solubility was estimated from the total volume of solvent used to obtain a clear solution, as determined by visual inspection. […]

# COMPOUND, solubility, mg/mL
records = [
    ("Cn1c(=O)cc(N2CCC[C@@H](N)C2)n(Cc2cc(F)ccc2C#N)c1=O [Compound I, succinate]", 68),
]

====

- ASSAY TEXT: Approximate solubility of Compound I in different solvents
- Type: physicochemical
- CONDITION INFO: organic solvent or mixture, thermodynamic from solid; Trifluoroethanol (TFE), ambient temperature, approximate

# COMPOUND, solubility
records = [
    ("Cn1c(=O)cc(N2CCC[C@@H](N)C2)n(Cc2cc(F)ccc2C#N)c1=O [Compound I, succinate]", "> 200 mg/mL"),
]

====

- ASSAY TEXT: Approximate solubility of Compound I in different solvents
- Format: physicochemical
- CONDITION INFO: organic solvent or mixture, thermodynamic from solid; Ethanol (EtOH), ambient temperature, approximate

# COMPOUND, UNIT ABBREVIATION, solubility
data = [
    ("Cn1c(=O)cc(N2CCC[C@@H](N)C2)n(Cc2cc(F)ccc2C#N)c1=O [Compound I, succinate]", "µg/mL", 2000),
]

====

- ASSAY TEXT: Approximate solubility of Compound I in different solvents
- Assay type: physicochemical
- CONDITION INFO: organic solvent or mixture, thermodynamic from solid; Ethyl Acetate (EtOAc), ambient temperature, approximate

# COMPOUND, solubility
records = [
    ("Cn1c(=O)cc(N2CCC[C@@H](N)C2)n(Cc2cc(F)ccc2C#N)c1=O [Compound I, succinate]", "< 1000 µg/mL"),
]
